Reported Ki against HPK1 (Homo sapiens (Human)), gathered from multiple publications, appears below.

Guide cases for Ki, answers given:
molecule | Ki
CN1CCN(c2ccc(-c3n[nH]c4cnc(-c5c(F)ccc6c5CCCC6N)cc34)cc2)CC1 (centres unmarked) | ≤ 100 nM
CN1CCN(c2ccc(-c3n[nH]c4ccc(-c5cnc6c(c5)ncn6C)nc34)cc2)CC1 | ≤ 100 nM
COc1cccc(F)c1-c1nccc(C(=O)Nc2cc(F)c3c(cnn3CCO)c2N2C[C@@H]3C[C@H]2CN3)n1 | < 100 nM
CN1CCN(c2ccc(-c3n[nH]c4ccc(-c5ccccc5O)nc34)cc2)CC1 | 100 to 500 nM
COCCn1ncc2c(N3C[C@@H](N)C[C@H]3CO)c(NC(=O)c3ccnc(-c4c(F)cc(N)cc4OC)n3)cc(F)c21 | < 100 nM
Nc1ccc(-c2cnc3c(c2Cl)C2(CC=CC2)CN3)c(F)c1 | 363 nM
CNCc1cc(C)c(-c2cc3c(-c4ccc(CO)cc4)n[nH]c3cc2C#N)c(F)c1 | ≤ 100 nM

Attention now shifts to the item below.
Report Ki for Cc1[nH]ncc1-c1cnc2c(c1)C1(CC1)CN2 please. 321 nM

###

Consider the following pKi data for HPK1 (Homo sapiens (Human)), collected from several reports.
pKi: −log10 of the molar value.

Solved cases below.
smilesRecord | pKi
CN1CCN(c2ccc(-c3n[nH]c4ccc(-c5ccc(=O)n(C)c5)nc34)cc2)CC1 | 5.00 to 6.30
CNC(=O)c1cncc(-c2ncc3[nH]nc(-c4ccc(N5CCN(C)CC5)cc4)c3n2)c1 | ≥ 7.00
COc1cccc(F)c1-n1cc2c(-c3ccc(N4CCN(C)CC4)cc3)n[nH]c2cc1=O | ≥ 7.00
COc1cccc(F)c1-c1cc2c(-c3ccc(N4CCN(C)CC4)cc3)n[nH]c2cn1 | ≥ 7.00
O=C1COCCN1c1cccc(-c2cnc3c(c2)C2(CC2)CN3)c1F | 7.41
OCCn1cc(-c2cnc3c(c2Cl)C2(CC=CC2)CN3)cn1 | 6.68
CC(C)(O)Cn1cc(-c2cnc3c(c2Cl)C2(CC=CC2)CN3)cn1 | 6.47

Shift focus to the following entry.
Please state recorded pKi (tested on HPK1 (Homo sapiens (Human))) of CN1CCN(c2ccc(-c3n[nH]c4cnc(-c5cc(F)cc(C6(CN)CC6)c5)cc34)cc2)CC1 ≥ 7.00

###

Multi-source literature compilation: Ki on UniProt Q92918.
property: Ki (nM)

Reference set (4 entries):
molecule | systemTested | number
Nc1cc(-c2cnc3c(c2Cl)C2(CCC(O)C2)CN3)cc(-c2ncccc2CO)c1 (stereo not shown) | UniProt Q92918 | 12.8
c1cc2[nH]cc(-c3cnc4c(c3)C3(CC3)CN4)c2cn1 | UniProt Q92918 | 90
CN(C)C(=O)c1c(N)ccc(-c2cnc3[nH]c(Cl)c(CCO)c3c2Cl)c1F | UniProt Q92918 | 12
O=C1NCCCN1c1cccc(-c2cnc3c(c2Cl)C2(CC2)CN3)c1 | UniProt Q92918 | 14.2

(I) CCc1ccncc1-c1cc(N)c2nnc(NC(=O)[C@@H]3C[C@H]3C#N)cc2c1 (racemic)
(II) O=C1NCCCN1c1cccc(-c2cnc3c(c2)C2(CC2)CN3)n1
(III) CCc1c(Cl)[nH]c2ncc(-c3cccc(C4NCCNC4=O)c3)cc12 (stereo not shown)
Please give the order of these molecules when sorted by Ki, largest value leading. Reply: labels, ordered per the request. II, III, I
(II: 102 nM, III: 31 nM, I: 13 nM)
